experiment: NCI Yeast Anticancer Drug Screen. Data for the bub3 strain (AID 167)
measurement-conditions: S. cerevisiae bub3 mutant strain; at 50.0 µM unless noted
About 79,000 compounds went through this panel and 15% of them were active in at least one assay; those are over-represented in the sample as a whole. Active and inactive are the calls of the source. No stated cut-off is given here; in the data, active means growth inhibition above about 70%; inactive means the rest.
Write down the outcome that applies. Available outcomes: YES for active, NO for inactive

Recorded results for 3 compounds are shown here.
COc1cc(C(CC(=O)O)C(=O)O)c([N+](=O)[O-])cc1OC (configuration not stated)	NO
CN(C)c1ccc(NC(=O)C(c2ccccc2)c2ccccc2)cc1	NO
CCCC1([N+]2(C)CCCC2)CS(=O)C1CC (configuration not stated)	NO

Exam item: Please let me know the test result on file for CCOC(=O)CC/C=N/Nc1ccc([N+](=O)[O-])cc1[N+](=O)[O-] .
Marked response: NO

Exam item: Please let me know the test result on file for C#CCOc1ccc(C)cc1 .
Marked response: NO

Exam item: Please let me know the test result on file for CCCCOC(=O)COCC(=O)OC(C)C(=O)OCCCC (configuration not stated) .
Marked response: NO

Exam item: Please let me know the test result on file for CCOC(=O)c1cc(/C=C/C(C)=C/C(=O)OC)n(C)c1C .
Marked response: YES

Exam item: Please let me know the test result on file for CC(=O)Oc1c(C)c2c(c3ncccc13)OC(C)C2 (configuration not stated) .
Marked response: NO

Exam item: Please let me know the test result on file for CCCN(CCC)CC(O)c1ccc(Cl)c2ccccc12 (configuration not stated) .
Marked response: NO

* * *

Consider the following compounds; for each one, report its growth inhibition.
experiment: NCI Yeast Anticancer Drug Screen. Data for the bub3 strain (AID 167)
measurement-conditions: S. cerevisiae bub3 mutant strain, hits give high values; at 50.0 µM unless noted
The panel holds about 79,000 compounds, 15% with a hit somewhere; the sample as a whole holds those more often.
Give bare numbers, in %.

Here's what some known entries look like.
Clc1cccc(/C=N\N=C\c2cccc(Cl)c2)c1	-1.95
OCCCCC(O)CO (configuration not stated)	-18.6
C1CCC2=NCCCN2CC1	11.8
CCCCCCCCCCCCCCCCCC(=O)N/N=C\c1c(O)ccc2ccccc12	-10.1
Nc1c(Cl)ncnc1NCc1ccco1	-1.05
CCOC(=O)NNC(=O)Nc1ccc(O[Si](C)(C)C)cc1	9.75

Exam item: Provide growth inhibition value for the following compound: Cc1c2ccccc2nc(CS(C)(=O)=O)[n+]1[O-]
Marked response: -16.7

* * *

experiment: NCI Yeast Anticancer Drug Screen. Data for the mec2-1 strain (AID 157)
measurement-conditions: S. cerevisiae mec2-1 strain, hits give high values; at 50.0 µM unless noted
Compounds without any hit were thinned out: in the full panel of roughly 79,000, 15% have a hit.
experimental-endpoint: growth inhibition (%)
Answers are plain numbers, in %.

COc1cc(C2c3cc4c(cc3OC(N3CCOCC3)C2C)OCO4)cc(OC)c1O (stereo not drawn)	-25.8
CCN(CC)CCC(=O)c1ccccc1	-4.25
Oc1c(CN2CCOCC2)ccc(CN2CCOCC2)c1O	17.3
O=[N+]([O-])c1ccc(S/N=C\c2ccccc2)c([N+](=O)[O-])c1	13.7
CCCCC(CC)CCC(C)O (stereo not drawn)	-4.75

For every record below, what is its growth inhibition?
1. Clc1ccc(-c2c(C3=NCCCN3)nnn2-c2ccc(Cl)cc2)cc1
2. NC(=O)NN(Cc1ccc2c(c1)OCO2)N=O
3. Cc1cc(=O)n(-c2ccccc2)c(=O)[nH]1
4. CCN(CCO)c1cccc(C)c1

Marked response:
-17.9
-6
1.95
-19.1

For every record below, what is its growth inhibition?
1. C[C@@]1([N+](=O)[O-])CC2CCC1C2 (stereo partly drawn)
2. NC(=O)c1ccc[n+]([O-])c1
3. CCCCOC(=O)CC(O)C(=O)OCCCC (stereo not drawn)
4. COc1ccc(C(NC(N)=O)c2cc3c(cc2OC(C)=O)OCO3)cc1 (stereo not drawn)

Marked response:
[-12.5, -0.5, -4.45, -1.95]
